Target: Human BACE (Homo sapiens)
Construct: Recombinant BACE (extracellular domain, expressed in baculovirus and purified using standard methods); made in house
Experiment: Test 1: Inhibition of Human BACE
Format: biochemical
Details: Test 1; recombinant BACE extracellular domain, acetate buffer pH 4.5, 1 hour incubation at room temperature, fluorescence-quenched APP-derived peptide substrate; read-out: Bace IC50
pIC50: −log10 of the molar value. Counter-ions that a name gives are not always drawn.
assay readout: pIC50

Please review the entries below; each comes with its answer.
{"compound": "CCc1cc(C[C@@H]2CS(=O)(=O)C[C@H](NCc3cccc(C(C)(C)C)c3)[C@H]2O)cc(F)c1NC(=O)COC [Example 10, hydrochloride]", "measurement target": "Human BACE (Homo sapiens)", "pIC50": 7.32}
{"compound": "CCCCNC(=O)c1cc(C[C@@H]2CS(=O)(=O)C[C@H](NCc3cccc(C(C)(C)C)c3)[C@H]2O)ccc1N (racemic)", "measurement target": "Human BACE (Homo sapiens)", "pIC50": 7.42}
{"compound": "COC[C@@H](Oc1cc(C[C@@H]2C[S+]([O-])C[C@H](NCc3cccc(C4(C)CC4)c3)[C@H]2O)cc(F)c1N)C(F)(F)F (stereo partly drawn) [Example 43, hydrochloride]", "measurement target": "Human BACE (Homo sapiens)", "pIC50": 8.00}
{"compound": "CC(C)(C)c1cccc(CNC2CS(=O)(=O)CC(Cc3ccc(N)c(C(=O)NCC(F)(F)F)c3)C2O)c1 (stereo not drawn)", "measurement target": "Human BACE (Homo sapiens)", "pIC50": 6.76}

[P] CC(C)(C)c1cccc(CN[C@H]2CS(=O)(=O)C[C@@H](Cc3cc(F)c(N)c(O[C@H](CO)C(F)(F)F)c3)[C@@H]2O)c1
[Q] CC(C)(C)c1cccc(CN[C@H]2CS(=O)(=O)C[C@@H](Cc3cc(F)c(N)c(O[C@H](CN)C(F)(F)F)c3)[C@@H]2O)c1
Returns: the label, P or Q , whose recorded pIC50 is the lower number. Provide the label of your selected option as the answer.
Q
(Q: 7.15, P: 8.52)

====

Molecular target: Human BACE (Homo sapiens, UniProt P56817)
Construct: Recombinant BACE (extracellular domain, expressed in baculovirus and purified using standard methods); made in house
Sequence (P56817 46-457 limits assumed): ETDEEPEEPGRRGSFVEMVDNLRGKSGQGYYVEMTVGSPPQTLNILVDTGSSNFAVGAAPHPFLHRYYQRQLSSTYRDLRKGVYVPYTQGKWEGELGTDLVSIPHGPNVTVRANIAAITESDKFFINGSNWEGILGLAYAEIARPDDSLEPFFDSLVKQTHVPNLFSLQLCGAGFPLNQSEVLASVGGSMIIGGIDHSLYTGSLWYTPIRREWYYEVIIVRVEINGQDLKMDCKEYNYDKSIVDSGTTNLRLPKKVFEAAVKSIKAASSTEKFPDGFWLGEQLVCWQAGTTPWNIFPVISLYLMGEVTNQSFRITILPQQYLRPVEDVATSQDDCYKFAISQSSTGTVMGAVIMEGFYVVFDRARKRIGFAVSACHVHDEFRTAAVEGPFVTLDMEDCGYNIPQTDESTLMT
Assay: Test 1: Inhibition of Human BACE
Assay type: biochemical
Settings: Test 1; recombinant BACE extracellular domain, acetate buffer pH 4.5, 1 hour incubation at room temperature, fluorescence-quenched APP-derived peptide substrate; read-out: Bace IC50
Counter-ions that a name gives are not always drawn.
assay readout: IC50 (nM)

Consider the reported IC50 for these compounds:
{"compound": "CN(C)CC(=O)Nc1c(F)cc(C[C@@H]2CS(=O)(=O)C[C@H](NCc3cccc(C(C)(C)C)c3)[C@H]2O)cc1OCC(F)(F)F [Example 26, dihydrochloride]", "measurement target": "Human BACE (Homo sapiens, UniProt P56817)", "assay readout": "IC50", "assay value": 7}
{"compound": "COC[C@@H](Oc1cc(C[C@@H]2C[S@@+]([O-])C[C@H](NCc3cc(OC)cc(C(C)C)c3)[C@H]2O)cc(F)c1N)C(F)(F)F", "measurement target": "Human BACE (Homo sapiens, UniProt P56817)", "assay readout": "IC50", "assay value": 26}
{"compound": "CNCC(=O)Nc1c(F)cc(C[C@@H]2CS(=O)(=O)C[C@H](NCc3cccc(C(C)(C)C)c3)[C@H]2O)cc1Cl", "measurement target": "Human BACE (Homo sapiens, UniProt P56817)", "assay readout": "IC50", "assay value": 28}

[A] COCC(Oc1cc(CC2C[S+]([O-])CC(NCc3cccc(OC)c3)C2O)cc(F)c1N)C(F)(F)F (centres unmarked)
[B] COC[C@@H](Oc1cc(C[C@@H]2C[S@@+]([O-])C[C@H](NCc3cccc(C(C)(C)C(F)(F)F)c3)[C@H]2O)cc(F)c1N)C(F)(F)F
Could you please tell me which of these two has the higher IC50: A or B ? Mark your selection by writing its label.
A

====

Biological target: Human BACE (Homo sapiens, UniProt P56817)
Construct: Recombinant BACE (extracellular domain, expressed in baculovirus and purified using standard methods); made in house
Test: Test 1: Inhibition of Human BACE
Format: biochemical
Settings: Test 1; recombinant BACE extracellular domain, acetate buffer pH 4.5, 1 hour incubation at room temperature, fluorescence-quenched APP-derived peptide substrate; read-out: Bace IC50
pIC50: −log10 of the molar value. Where a name gives a salt, the structure may show the parent alone.
assay readout: pIC50

[a] CCNCc1cc(C[C@@H]2CS(=O)(=O)C[C@H](NCc3cccc(C(C)(C)C)c3)[C@H]2O)cc(F)c1N (relative stereo) [Example 3, hydrochloride]
[b] CC(C)(C)c1cccc(CNC2CS(=O)(=O)CC(Cc3ccc(N)c(C(=O)NCCF)c3)C2O)c1 (stereo not drawn)
[c] CCNCC(=O)Nc1c(F)cc(C[C@@H]2CS(=O)(=O)C[C@H](NCc3cccc(C(C)(C)C)c3)[C@H]2O)cc1OCC(F)(F)F
Please rank everything listed above by pIC50, with the minimum value first. Returns: the labels arranged in the requested order.
a, b, c
(a: 5.94, b: 7.34, c: 8.52)

[I] CC(C)(C)c1cccc(CN[C@H]2CS(=O)(=O)C[C@@H](Cc3cc(F)c(NC(=O)CNC4CC4)c(Cl)c3)[C@@H]2O)c1
[II] CC(C)(C)c1cccc(CN[C@H]2CS(=O)(=O)C[C@@H](Cc3cc(F)c(NC(=O)CN4CCCCC4)c(OCC(F)(F)F)c3)[C@@H]2O)c1
Lab note: check whether I or II has the lower measured pIC50. Indicate your choice by writing its label.
I

====

Biological target: Human BACE (Homo sapiens)
Construct: Recombinant BACE (extracellular domain, expressed in baculovirus and purified using standard methods); made in house
Assay: Test 1: Inhibition of Human BACE
Assay type: biochemical
Where a name gives a salt, the structure may show the parent alone.
assay readout: IC50 (nM)
API: value field is a number in nM; no unit string.

# return recorded IC50 for input COC[C@@H](Oc1cc(C[C@@H]2C[S@@+]([O-])C[C@H](NCc3cccc(C(C)(C)C)c3)C2=O)cc(F)c1N)C(F)(F)F [Example 64, trifluoroacetate]
4

====

Biological target: Human BACE (Homo sapiens, UniProt P56817)
Construct: Recombinant BACE (extracellular domain, expressed in baculovirus and purified using standard methods); made in house
Test: Test 1: Inhibition of Human BACE
Assay type: biochemical
Conditions: Test 1; recombinant BACE extracellular domain, acetate buffer pH 4.5, 1 hour incubation at room temperature, fluorescence-quenched APP-derived peptide substrate; read-out: Bace IC50
Structures can show the parent of a compound that is named as a salt.
assay readout: IC50 (nM)

Worked cases, IC50 given:
{"compound": "CC(C)(C)c1cccc(CN[C@H]2CS(=O)(=O)C[C@@H](Cc3cc(F)c(NC(=O)CN4CCC4)c(OCC(F)(F)F)c3)[C@@H]2O)c1 [Example 28]", "unit annotation": "nM", "IC50": 7}
{"compound": "C[Si](C)(C)c1cccc(CN[C@H]2CS(=O)(=O)C[C@@H](Cc3cc(F)c(N)c(OC(C(F)(F)F)C(F)(F)F)c3)[C@@H]2O)c1 [Example 31]", "unit annotation": "nM", "IC50": 22}
{"compound": "CN(C)CCNc1ccc(C[C@@H]2CS(=O)(=O)C[C@H](NCc3cccc(C(C)(C)C)c3)[C@H]2O)cc1F (racemic) [Example 7]", "unit annotation": "nM", "IC50": 8400}
{"compound": "C[Si](C)(C)c1cccc(CNC2C[S+]([O-])CC(Cc3cc(F)c(N)c(OCC(F)(F)F)c3)C2O)c1 (stereo not shown) [Example 63]", "unit annotation": "nM", "IC50": 118}
{"compound": "CC(C)(C)c1cccc(CN[C@H]2CS(=O)(=O)C[C@@H](Cc3cc(F)c(NC(=O)CN4CCCCC4)c(Cl)c3)[C@@H]2O)c1 [Example 16]", "unit annotation": "nM", "IC50": 34}

[a] CCCNC(=O)c1cc(CC2CS(=O)(=O)CC(NCc3cccc(C(C)(C)C)c3)C2O)ccc1N (stereo not shown) [Example 20]
[b] CCNC(=O)c1cc(CC2CS(=O)(=O)CC(NCc3cccc(C(C)(C)C)c3)C2O)ccc1N (stereo not shown) [Example 19]
[c] COCC(Oc1cc(CC2C[S+]([O-])CC(NCc3cccc(OC(F)F)c3)C2O)cc(F)c1N)C(F)(F)F (stereo not shown) [Example 62]
[d] CC(C)(C)c1cccc(CNC2CS(=O)(=O)CC(Cc3ccc(N)c(C(=O)NCC4CC4)c3)C2O)c1 (stereo not shown) [Example 21]
Ascending by IC50, please: list the compounds accordingly. # respond with the labels, arranged in the requested order
d, b, a, c
(d: 8 nM, b: 26 nM, a: 151 nM, c: 334 nM)

[I] C[C@H](Oc1cc(C[C@@H]2C[S@@+]([O-])C[C@H](NCc3ccc4c(c3)C(C)(C)OC4)[C@H]2O)cc(F)c1N)C(F)(F)F [Example 52]
[II] CCNCC(=O)Nc1c(F)cc(C[C@@H]2CS(=O)(=O)C[C@H](NCc3cccc(C(C)(C)C)c3)[C@H]2O)cc1Cl [Example 12]
Of I and II , which one carries the higher reported IC50? Kindly give the label for the entry you pick.
I

[a] CN(C)CC(=O)Nc1c(F)cc(C[C@@H]2CS(=O)(=O)C[C@H](NCc3cccc(C(C)(C)C)c3)[C@H]2O)cc1Cl [Example 11, dihydrochloride]
[b] COC[C@@H](Oc1cc(C[C@@H]2C[S@@+]([O-])C[C@H](NCc3ccc4c(c3)OC(C)(C)C4)[C@H]2O)cc(F)c1N)C(F)(F)F [Example 50, dihydrochloride]
Hi, I'm comparing a with b and wondering which one has the bigger number for IC50. Any idea? State your choice using its label.
b

Hello, the source for this data is patent US8093406B2, in case you need it.
